B1: library; numbered along this chain (parent)
chain: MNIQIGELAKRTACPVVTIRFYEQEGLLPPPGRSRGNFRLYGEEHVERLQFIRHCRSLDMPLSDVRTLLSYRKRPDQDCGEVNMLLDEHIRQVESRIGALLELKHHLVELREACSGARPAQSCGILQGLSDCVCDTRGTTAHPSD

- Variants of: B1
- Test Details: sfGFP reporter fluorescence (15 h) (µM FITC); higher = stronger transcriptional activation
- Recorded Conditions: library round: Round 0; ligand: 1 µM Pb
Parameter threshold = 0.08. Response is 1.0 when sfGFP reporter fluorescence meets or exceeds it, else 0.0.

Determine whether measured sfGFP reporter fluorescence meets or exceeds 0.08 for R20M
0.0

Determine whether measured sfGFP reporter fluorescence meets or exceeds 0.08 for L129I
0.0

Determine whether measured sfGFP reporter fluorescence meets or exceeds 0.08 for G128K
1.0

Determine whether measured sfGFP reporter fluorescence meets or exceeds 0.08 for L85H
0.0

Determine whether measured sfGFP reporter fluorescence meets or exceeds 0.08 for P30M
1.0

Determine whether measured sfGFP reporter fluorescence meets or exceeds 0.08 for C114V
0.0

Determine whether measured sfGFP reporter fluorescence meets or exceeds 0.08 for V46N
0.0

Determine whether measured sfGFP reporter fluorescence meets or exceeds 0.08 for L58P
0.0

Determine whether measured sfGFP reporter fluorescence meets or exceeds 0.08 for C55W
1.0

Determine whether measured sfGFP reporter fluorescence meets or exceeds 0.08 for Y22L
0.0

Determine whether measured sfGFP reporter fluorescence meets or exceeds 0.08 for E109I
1.0

Determine whether measured sfGFP reporter fluorescence meets or exceeds 0.08 for E94W
0.0

Determine whether measured sfGFP reporter fluorescence meets or exceeds 0.08 for L62E
0.0

Determine whether measured sfGFP reporter fluorescence meets or exceeds 0.08 for C134F
1.0

Determine whether measured sfGFP reporter fluorescence meets or exceeds 0.08 for C134V
1.0

Determine whether measured sfGFP reporter fluorescence meets or exceeds 0.08 for R39G
0.0

Determine whether measured sfGFP reporter fluorescence meets or exceeds 0.08 for Y22V
0.0

Determine whether measured sfGFP reporter fluorescence meets or exceeds 0.08 for G6K
0.0

Determine whether measured sfGFP reporter fluorescence meets or exceeds 0.08 for L110Y
0.0
